Test system: Vcap
Experiment: CCK-8 tumor cell proliferation, Vcap
Format: cell-based, Human
Conditions: Homo sapiens, VCaP, Table 18, FAK inhibitor based; Vcap; read-out: IC50 inhibiting proliferation of tumor cells, Vcap
Description: The tumor cells used herein were cultured in a cell culture medium listed in table 4 at 37° C. in an incubator with 5% CO2. […] IC50 values of the compounds of the present disclosure (including the compounds in Tables 1 and 3, and compounds of examples) were measured using the Meilun Cell Counting Kit-8 kit from Dalian Meilun Biotech Co., Ltd. Assay details are as follows: tumor cells were seeded in a 96-well plate at a density listed in Table 5. […]
pIC50: −log10 of the molar value.
Listing: pIC50 of selected compounds

Here is how some compounds turned out for pIC50.
CNC(=O)c1ccccc1Nc1cc(Nc2cc(C)c(N3CCN(Cc4cc5c(cc4F)C(=O)N(C4CCC(=O)NC4=O)C5)CC3)cc2OC(C)C)ncc1C(F)(F)F (centres unmarked) ... > 7.30
CNC(=O)c1ccccc1Nc1cc(Nc2cc(C)c(C3CCN(Cc4ccc5c(c4F)CN(C4CCC(=O)NC4=O)C5=O)CC3)cc2OC(C)C)ncc1C(F)(F)F (centres unmarked) ... > 7.30
CNC(=O)c1ccccc1Nc1cc(Nc2cc(C)c(C3CCN(Cc4cc5c(cc4F)C(=O)N(C4CCC(=O)NC4=O)C5)CC3)cc2OC(C)C)ncc1C(F)(F)F (centres unmarked) ... > 7.30
CNC(=O)c1ccccc1Nc1cc(Nc2cc(C)c(N3CCN(Cc4ccc5c(c4)CN(C4CCC(=O)NC4=O)C5=O)CC3)cc2OC(C)C)ncc1C(F)(F)F (centres unmarked) ... 6.00 to 6.30
CNC(=O)c1ccccc1Nc1cc(Nc2cc(C)c(N3CCN(Cc4ccc5c(c4F)CN(C4CCC(=O)NC4=O)C5=O)CC3)cc2OC(C)C)ncc1C(F)(F)F (centres unmarked) ... 6.30 to 7.00

Prompt: Consider the compound shown here: CN(c1nccnc1CNc1nc(Nc2ccc(N3CCC(N4CCN(Cc5ccc6c(c5)CN(C5CCC(=O)NC5=O)C6=O)CC4)CC3)cc2)ncc1C(F)(F)F)S(C)(=O)=O (centres unmarked) What is its recorded pIC50?
Response: 6.30 to 7.00

Prompt: Consider the compound shown here: CN(Cc1ccc2c(c1)CN(C1CCC(=O)NC1=O)C2=O)C1CCN(c2ccc(Nc3ncc(C(F)(F)F)c(NCc4nccnc4N(C)S(C)(=O)=O)n3)cc2)CC1 (centres unmarked) What is its recorded pIC50?
Response: 6.30 to 7.00

Prompt: Consider the compound shown here: CNC(=O)c1ccccc1Nc1cc(Nc2ccc(N3CCN(Cc4cc5c(cc4F)C(=O)N(C4CCC(=O)NC4=O)C5)CC3)cc2OC)ncc1C(F)(F)F (centres unmarked) What is its recorded pIC50?
Response: > 7.30

###

Test system: MM.1R
Assay: CCK-8 tumor cell proliferation, MM.1R
Assay type: cell-based
Conditions: Table 19, IRAK4 inhibitor based, read-out: IC50 inhibiting proliferation of tumor cells, MM.1R
pIC50: −log10 of the molar value.
MEASURED_ATTRIBUTE: pIC50

O=C1CCC(N2Cc3c(CN4CCN(c5ccc(-n6cc(NC(=O)c7coc(-c8ccnc(NCC(F)(F)F)c8)n7)c(C(F)F)n6)cc5)CC4)cccc3C2=O)C(=O)N1 (centres unmarked) ... > 7.30

Prompt: Consider the compound shown here: CC(C)(O)c1cc2nc(C3CCN(Cc4ccc5c(c4F)CN(C4CCC(=O)NC4=O)C5=O)CC3)oc2cc1NC(=O)c1cccc(C(F)(F)F)n1 (centres unmarked) What is its recorded pIC50?
Response: 7.00 to 7.30

Prompt: Consider the compound shown here: O=C1CCC(N2Cc3cc(CN4CCC(n5cc(NC(=O)c6cnn7ccc(N8CCOCC8)nc67)c(C(F)F)n5)CC4)ccc3C2=O)C(=O)N1 (centres unmarked) What is its recorded pIC50?
Response: > 7.30

Prompt: Consider the compound shown here: O=C1CCC(N2C(=O)c3ccc(CN4CCN(c5ccc(-n6cc(NC(=O)c7coc(-c8ccnc(NCC(F)(F)F)c8)n7)c(C(F)F)n6)cc5)CC4)cc3C2=O)C(=O)N1 (centres unmarked) What is its recorded pIC50?
Response: 6.00 to 6.30

Prompt: Consider the compound shown here: O=C1CCC(N2Cc3cc(CN4CCN(c5ccc(-n6cc(NC(=O)c7coc(-c8ccnc(NCC(F)(F)F)c8)n7)c(C(F)F)n6)cc5)CC4)c(F)cc3C2=O)C(=O)N1 (centres unmarked) What is its recorded pIC50?
Response: 6.30 to 7.00

Prompt: Consider the compound shown here: CC(C)(O)c1cc2nc(C3CCN(Cc4cc5c(cc4F)C(=O)N(C4CCC(=O)NC4=O)C5)CC3)oc2cc1NC(=O)c1cccc(C(F)(F)F)n1 (centres unmarked) What is its recorded pIC50?
Response: > 7.30

Prompt: Consider the compound shown here: O=C1CCC(N2Cc3c(ccc(CN4CCC(n5cc(NC(=O)c6cnn7ccc(N8CCOCC8)nc67)c(C(F)F)n5)CC4)c3F)C2=O)C(=O)N1 (centres unmarked) What is its recorded pIC50?
Response: > 7.30

Prompt: Consider the compound shown here: O=C1CCC(N2Cc3cc(CN4CCC(n5cc(NC(=O)c6cnn7ccc(N8CCOCC8)nc67)c(C(F)F)n5)CC4)c(F)cc3C2=O)C(=O)N1 (centres unmarked) What is its recorded pIC50?
Response: > 7.30
